- Test system: KRAS patient-derived spheroids with HUVEC/MSC, viability;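 note: spheroids exposed to agents for seven days before readout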
- Experiment Notes: Anticancer human tumor 941728-121-R-J1-PDC patient-derived lung adenocarcinoma cell line growth inhibition [KRAS2]
- Stated Conditions: curve of first compound; second compound 0.1 µM
pIC50: −log10 of the molar value.
pIC50 values, listed per item
Reported Endpoint: pIC50

COC(=O)c1ccc2c(C(=Nc3ccc(N(C)C(=O)CN4CCN(C)CC4)cc3)c3ccccc3)c(O)[nH]c2c1 + CC1OCC2(CCN(c3cnc(Sc4ccnc(N)c4Cl)c(N)n3)CC2)C1N | > 7.50
O=C(c1cc(Cc2n[nH]c(=O)c3ccccc23)ccc1F)N1CCN(C(=O)C2CC2)CC1 + CNCc1ccccc1-c1csc(C(C)Nc2nc(C)nc3cc(OC)c(OC)cc23)c1 | < 5.00
CC(=O)OC12COC1CC(O)C1(C)C(=O)C(O)C3=C(C)C(OC(=O)C(O)C(NC(=O)OC(C)(C)C)c4ccccc4)CC(O)(C(OC(=O)c4ccccc4)C21)C3(C)C (stereo not drawn) + CC1OCC2(CCN(c3cnc(Sc4ccnc(N)c4Cl)c(N)n3)CC2)C1N | > 8.00
